Target: PSMA (glutamate carboxypeptidase II, GCPII) (Homo sapiens)
Construct: endogenous in cells; host or cells: LNCaP cells (Triton X-100 lysate, sonicated, supernatant after 1000g)
Sequence (Q04609 whole entry): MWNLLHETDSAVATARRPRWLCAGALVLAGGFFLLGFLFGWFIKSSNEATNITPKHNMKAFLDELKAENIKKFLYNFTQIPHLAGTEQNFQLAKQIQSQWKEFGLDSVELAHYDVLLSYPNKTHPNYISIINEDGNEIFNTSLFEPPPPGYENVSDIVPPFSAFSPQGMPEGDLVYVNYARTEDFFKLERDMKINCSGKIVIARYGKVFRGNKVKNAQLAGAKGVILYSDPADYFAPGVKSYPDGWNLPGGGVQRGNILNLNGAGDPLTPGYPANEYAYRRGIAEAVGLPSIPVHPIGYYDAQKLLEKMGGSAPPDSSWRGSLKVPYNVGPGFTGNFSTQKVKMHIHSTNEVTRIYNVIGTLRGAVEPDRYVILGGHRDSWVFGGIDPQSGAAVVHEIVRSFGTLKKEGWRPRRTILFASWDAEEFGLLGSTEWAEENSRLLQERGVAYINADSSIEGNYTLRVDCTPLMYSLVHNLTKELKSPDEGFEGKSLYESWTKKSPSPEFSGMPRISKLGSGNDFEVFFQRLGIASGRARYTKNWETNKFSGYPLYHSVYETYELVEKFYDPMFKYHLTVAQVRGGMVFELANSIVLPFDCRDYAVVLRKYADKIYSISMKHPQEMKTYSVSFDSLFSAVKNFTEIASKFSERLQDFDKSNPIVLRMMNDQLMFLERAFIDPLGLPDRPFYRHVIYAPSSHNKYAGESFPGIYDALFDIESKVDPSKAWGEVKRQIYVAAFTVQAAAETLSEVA
Test: Inhibition of the NAAG cleavage reaction (affinity to PSMA), LNCaP cell extract
Format: biochemical
Settings: inhibition of NAAG cleavage, LNCaP cell extract, 2 h at 37 °C, glutamate detected with Amplex Red kit (fluorescence); SD
Description: The affinity of the four newly obtained ligands to PSMA was evaluated in vitro by inhibiting the cleavage of N-acetylaspartylglutamic acid (NAAG). One function of PSMA, also known as glutamate carboxypeptidase II (GCPII), is the cleavage of NAAG into N-acetylaspartate and glutamate. PSMA-specific ligands inhibit this reaction by interacting with the protein. […] The inhibition by PSMA ligands was analyzed using a non-radioactive protocol with detection of the glutamate released during the reaction. […]
REPORTED_PROPERTY: IC50

Worked cases, answers included:
{"columns": ["MOLECULE", "TARGET", "IC50"],
 "data": [
  ["NCCCC[C@H](NC(=O)N[C@@H](CCC(=O)O)C(=O)O)C(=O)O [DCL, reference compound]", "PSMA (glutamate carboxypeptidase II, GCPII) (Homo sapiens)", "0.547 µM"],
  ["[N-]=[N+]=NCCCNC(=O)[C@H](CCCCN)NC(=O)[C@H](Cc1ccc(O)cc1)NC(=O)[C@H](Cc1ccccc1)NC(=O)CCC(=O)NCCCCCC(=O)N(CCCC[C@H](NC(=O)N[C@@H](CCC(=O)O)C(=O)O)C(=O)O)Cc1ccc(C(=O)O)cc1", "PSMA (glutamate carboxypeptidase II, GCPII) (Homo sapiens)", "0.01 µM"]
]}

Could you now consider this next molecule?
[Q] Need IC50 of [N-]=[N+]=NCCCNC(=O)[C@H](CCCCN)NC(=O)[C@H](Cc1ccccc1)NC(=O)[C@H](Cc1ccccc1)NC(=O)CCC(=O)NCCCCCC(=O)N(CCCC[C@H](NC(=O)N[C@@H](CCC(=O)O)C(=O)O)C(=O)O)Cc1ccc(C(=O)O)cc1 , thanks.
[A] 0.0055 µM

// provenance: paper PMC10380083
